measurement_protocol: self-splicing fitness, log relative to wild type (ln ratio); higher = more splicing; Tetrahymena group I intron in knt gene, E. coli kanamycin selection, DiMSum; sequences stand for … in CUCUCU…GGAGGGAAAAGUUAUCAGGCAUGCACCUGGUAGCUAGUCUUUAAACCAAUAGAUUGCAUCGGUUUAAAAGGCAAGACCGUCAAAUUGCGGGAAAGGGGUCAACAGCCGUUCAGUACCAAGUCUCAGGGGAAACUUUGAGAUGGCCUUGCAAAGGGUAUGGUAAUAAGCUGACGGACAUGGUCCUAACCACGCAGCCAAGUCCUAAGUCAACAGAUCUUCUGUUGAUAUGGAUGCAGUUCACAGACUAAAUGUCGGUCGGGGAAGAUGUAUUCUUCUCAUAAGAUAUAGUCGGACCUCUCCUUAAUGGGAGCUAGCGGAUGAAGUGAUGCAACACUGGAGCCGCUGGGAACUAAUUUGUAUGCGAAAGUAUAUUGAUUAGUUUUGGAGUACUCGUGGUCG;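 also: selection with 25 µg/mL kanamycin versus none on LB agar overnight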
experimental_setup: 30 °C
Given measured self-splicing fitness (ln), output yes if it is greater than or equal to -3 and no if not.

1. AAGGAGCAAUAUUACGGGGC : no
2. AAACAGCAAUAUUACGCGUA : yes
3. ACAUAGCAAUAUUACGAACG : yes
4. AGUCAGCAAUAUUACGGUAG : no
5. ACCUAGCAAUAUUACGGAAG : yes
6. UCUUAGCAAUAUUACGUGCU : no
7. GACGAGCAAUAUUACGGUCC : no
8. CGUUAGCAAUAUUACGAUUU : yes
9. ACUCAGCAAUAUUACGUCAC : no
10. UAUCAGCAAUAUUACGCAAG : yes
11. UCUUAGCAAUAUUACGAGGU : no
12. CACUAGCAAUAUUACGAUGA : yes
13. AAACAGCAAUAUUACGAUGU : yes
14. CCAUAGCAAUAUUACGAAUU : no
15. AAUCAGCAAUAUUACGUUUC : yes
16. CCUCAGCAAUAUUACGUAUC : yes
17. AACUAGCAAUAUUACGCCCC : yes
18. CCCCAGCAAUAUUACGUCCA : no
19. GCUAAGCAAUAUUACGGGCA : yes
20. CAUAAGCAAUAUUACGCCUC : yes
21. AGUGAGCAAUAUUACGAUGA : no
22. CAGUAGCAAUAUUACGUUGU : no
23. UAGGAGCAAUAUUACGCUUA : yes
24. UAUGAGCAAUAUUACGUGCU : no
25. GCGUAGCAAUAUUACGCAUU : yes
26. CGUAAGCAAUAUUACGGCGU : yes
27. AGCGAGCAAUAUUACGCUGC : yes
28. AGCCAGCAAUAUUACGAGAU : no
29. GGAUAGCAAUAUUACGGACC : yes
30. UACAAGCAAUAUUACGUAGU : no
31. CAAAAGCAAUAUUACGCACG : yes
32. AGCGAGCAAUAUUACGAUGC : no
33. AAAUAGCAAUAUUACGGAGC : no
34. UGCUAGCAAUAUUACGUCAC : no
35. UCGAAGCAAUAUUACGGUAC : no
36. UAAGAGCAAUAUUACGCGUC : no
37. UUAGAGCAAUAUUACGUGUU : no
38. UGGAAGCAAUAUUACGCUUA : yes
39. AAGUAGCAAUAUUACGACGC : yes
40. AGUUAGCAAUAUUACGCUAA : no
41. CUCAAGCAAUAUUACGUGGG : no
42. AGGAAGCAAUAUUACGCGGG : yes
43. UUUGAGCAAUAUUACGGAUC : no
44. UGUCAGCAAUAUUACGUCAC : no
45. UAAAAGCAAUAUUACGAACG : yes
46. UAGGAGCAAUAUUACGGGUU : no
47. CACUAGCAAUAUUACGUGUA : yes
48. ACGCAGCAAUAUUACGGUCG : yes
49. GGUAAGCAAUAUUACGAAUU : yes
50. CGAGAGCAAUAUUACGAAUU : yes
51. CGUAAGCAAUAUUACGUCCU : yes
52. ACUAAGCAAUAUUACGGAUC : yes
53. UCAUAGCAAUAUUACGUAAA : yes
54. AGUUAGCAAUAUUACGUUGG : yes
55. UUACAGCAAUAUUACGAAGA : yes
56. GGGCAGCAAUAUUACGCGCC : no
57. GCAGAGCAAUAUUACGUAAC : yes
58. UGCUAGCAAUAUUACGUCCA : yes
59. UCGCAGCAAUAUUACGGCAC : yes
60. GGCUAGCAAUAUUACGCUAA : yes
61. AUUUAGCAAUAUUACGUGUA : yes
62. CACAAGCAAUAUUACGCCGG : yes
63. GUGGAGCAAUAUUACGGGUA : yes
64. UUGAAGCAAUAUUACGUACC : no
65. CAAUAGCAAUAUUACGCCAU : no
